target system: Recombinant Human ENPP-1 Protein (Homo sapiens (Human))
Sequence (P22413 whole entry, looked up): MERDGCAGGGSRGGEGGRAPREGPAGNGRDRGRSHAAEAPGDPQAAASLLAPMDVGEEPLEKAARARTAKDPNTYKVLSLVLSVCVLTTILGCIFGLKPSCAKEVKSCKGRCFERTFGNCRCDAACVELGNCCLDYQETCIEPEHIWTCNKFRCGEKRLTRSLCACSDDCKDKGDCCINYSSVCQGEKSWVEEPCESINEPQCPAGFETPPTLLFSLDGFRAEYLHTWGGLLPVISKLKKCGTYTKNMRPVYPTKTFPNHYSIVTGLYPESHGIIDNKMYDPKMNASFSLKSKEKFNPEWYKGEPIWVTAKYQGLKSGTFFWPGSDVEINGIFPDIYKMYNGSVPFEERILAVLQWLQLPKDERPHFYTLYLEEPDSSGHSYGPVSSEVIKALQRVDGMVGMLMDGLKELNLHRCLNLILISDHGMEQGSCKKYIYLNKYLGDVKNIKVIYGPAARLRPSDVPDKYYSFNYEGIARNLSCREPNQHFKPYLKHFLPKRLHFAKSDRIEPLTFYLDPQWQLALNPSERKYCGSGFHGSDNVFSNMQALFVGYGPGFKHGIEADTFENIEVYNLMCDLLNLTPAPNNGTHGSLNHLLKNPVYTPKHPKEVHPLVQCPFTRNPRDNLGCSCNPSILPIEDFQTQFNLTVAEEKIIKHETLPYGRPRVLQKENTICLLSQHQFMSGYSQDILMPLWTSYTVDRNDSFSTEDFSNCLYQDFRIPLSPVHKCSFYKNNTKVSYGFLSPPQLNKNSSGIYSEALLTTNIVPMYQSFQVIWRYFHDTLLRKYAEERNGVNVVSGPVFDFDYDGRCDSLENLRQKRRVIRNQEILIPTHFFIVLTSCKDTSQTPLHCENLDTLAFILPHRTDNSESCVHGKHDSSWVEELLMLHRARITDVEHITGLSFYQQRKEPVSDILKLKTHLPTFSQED
method notes: ENPP1 Assay (TMP)
Format: biochemical
conditions: read-out: IC50
pIC50: −log10 of the molar value. Where a name gives a salt, the structure may show the parent alone.
// reported pIC50 for each item listed
attribute measured: pIC50

* COc1cc2ncnc(N3CCN(S(N)(=O)=O)CC(F)(F)C3)c2cc1OC [Compound 029, hydrochloride] | 8.92
* COc1cc2ncnc(N3CCCN(S(N)(=O)=O)CC3)c2cc1OC [Compound 015] | 7.49
* COc1cc2ncnc(N3CC4CC(C3)N(S(N)(=O)=O)C4)c2cc1OC (centres unmarked) [Compound 026, hydrochloride] | 6.93
* COc1cc2ncnc(N3CCCN(C(=O)CNS(N)(=O)=O)CC3)c2cc1OC [Compound 065] | 8.11
* COc1ccc2ncnc(N3CCCN(S(N)(=O)=O)CC3)c2c1 [Compound 022] | 6.93
* COc1cc2ncnc(N3CCCN(CCNS(N)(=O)=O)CC3)c2cc1OC.Cl [Compound 063, hydrochloride] | 7.17
* COc1cc2ncc(C#N)c(N3CCCC(NS(N)(=O)=O)CC3)c2cc1OC (centres unmarked) [Compound 042] | 7.39
* COc1cc2c(N3CCCN(S(N)(=O)=O)CC3)ncnc2cc1-c1cn[nH]c1 [Compound 020] | 7.00
